Origin of the recorded values: patent US20210355106A1

Biological target: USP7 (Homo sapiens, UniProt Q93009, C315A)
Construct: 0.25 nM His-His-USP7 (aa208-560, |C315A|) was incubated with compound; His-His (N)
Sequence (Q93009 208-560 C315A): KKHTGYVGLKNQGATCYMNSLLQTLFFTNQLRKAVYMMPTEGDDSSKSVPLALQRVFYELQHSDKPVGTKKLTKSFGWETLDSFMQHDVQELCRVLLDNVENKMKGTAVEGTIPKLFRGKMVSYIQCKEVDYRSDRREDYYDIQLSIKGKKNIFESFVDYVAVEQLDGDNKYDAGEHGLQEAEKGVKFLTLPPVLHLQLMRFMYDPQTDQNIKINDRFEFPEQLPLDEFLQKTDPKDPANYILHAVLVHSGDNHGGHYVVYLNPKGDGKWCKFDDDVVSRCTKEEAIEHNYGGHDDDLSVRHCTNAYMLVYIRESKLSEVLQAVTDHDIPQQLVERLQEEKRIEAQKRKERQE
Assay: Inhibition of USP7 by Fluorescence Intensity (FLINT) readings, Ubiquitin-Rhodamine-110 substrate
Type: biochemical
Conditions: 0.25 nM His-His-USP7 (aa208-560), 60 minutes at 30° C. preincubation; Ki determined from IC50 according to Cer et al.
Procedure: USP7 activity was measured using Rhodamine-110 c-terminal labelled Ubiquitin as a substrate (UbiQ Bio), Incubation with USP7 results in the release of Rhodamine-110 leading to an increase in fluorescence which can be used in the continuous measurement of USP7 activity. […] The inhibition of increasing doses of compound was expressed as a percentage reduction in kinetic rate compared to the kinetic rates established between ‘DMSO only’ and ‘total inhibition’ controls (no USP7). […]
// values below are reported log10 of Ki
Transform log10 | Measure Ki | Unit nM

Below, each entry is followed by its recorded log10 of Ki result.
>>> df
                    structure_smiles_string  test_value
0  COc1cc(Cl)cc(Oc2ncn(C[C@@]3(O)CCN(C(=O)[C@@H]4CCN(Cc5cnc(C)cn5)C[C@H]4c4ccccc4)CC3(F)F)c(=O)c2N)c1        1.85
1  Cc1cc(C(=O)N2CC[C@@H](C(=O)N3CCC(O)(Cn4cnc(Oc5ccc(F)cc5)c(N)c4=O)CC3)[C@H](c3ccccc3)C2)ccn1        1.11
2  Cc1ccc(-c2cccc(S(=O)(=O)N3CC[C@@H](C(=O)N4CCC(O)(Cn5cnc(Oc6ccc(F)cc6)c(N)c5=O)CC4)[C@H](c4ccccc4)C3)c2)cn1        1.35
3  CC1(N2CC[C@@H](C(=O)N3CCC(O)(Cn4cnc(Oc5ccc(F)cc5)c(N)c4=O)CC3)[C@H](c3ccccc3)C2)COC1        2.49

So what's the measured log10 of Ki for this one? Cn1c(C(=O)N2CC[C@@H](C(=O)N3CCC(O)(Cn4cnc(Oc5ccc(F)cc5)c(N)c4=O)CC3)[C@H](c3ccccc3)C2)cc2ccccc21 1.13

What about Nc1c(Oc2ccc(F)cc2)ncn(CC2(O)CCN(C(=O)[C@@H]3CCN(C(=O)c4cccc5cnccc45)C[C@H]3c3ccccc3)CC2)c1=O ? 0.61

Now this one: Cc1nc(Cc2ccccc2)sc1C(=O)N1CC[C@@H](C(=O)N2CCC(O)(Cn3cnc(Oc4ccc(F)cc4)c(N)c3=O)CC2)[C@H](c2ccccc2)C1 0.90
